system: HEK293T (UBE3A T485A transfected, BAR Wnt reporter); experiment: Renilla luciferase signal (cell health) relative to plate median (fold (linear ratio)); higher = higher Renilla signal; details: concentration: 0.1 uM; 24 h
In all, about 1,100 compounds were measured (“Renilla luciferase signal (cell health) relative to plate median”: median about 0.97, highest 2% from about 1.6 on). The entries come from a sample that favours the highest values as a whole.
# Renilla luciferase signal per entry
When you answer, write just the number.

Below, 4 molecules whose answers are already recorded.
molecule | Renilla luciferase signal
CCCCCCCC(=O)OC [Methyl octanoate] | 1.03
CCOC(=O)C(C)Oc1ccc(Oc2nc3ccc(Cl)cc3o2)cc1 (stereo not given) | 0.851
CCCCOC(=O)C(C)Oc1ccc(Oc2ccc(C(F)(F)F)cn2)cc1 (stereo not given) | 0.837
CCOC(=O)C(C)Oc1ccc(Oc2cnc3cc(Cl)ccc3n2)cc1 (stereo not given) | 0.758

q: Please look at this molecule and report its Renilla luciferase signal: COC(=O)CCCCC(=O)OC [Dimethyl adipate]
a: 0.854
